- Tested on: human neuroblastoma IMR32 cells (somatostatin receptor overexpression)
- protocolDetails: MTT cytotoxicity assay, IMR-32 cells
- testParameters: human
pIC50: −log10 of the molar value. Bridge positions count the residues as written; N and C are the ends. Square brackets hold non-standard residues; d marks the D form. Peptide text beside a SMILES is read from it. * marks the point of attachment. Camptothecin(20S-OCO) = CC[C@@]1(OC(=O)*)C(=O)OCc2c1cc1n(c2=O)Cc2cc3ccccc3nc2-1; Gly(N(CH2)3NH2) = NCCCNCC(=O)O; Nle = CCCC[C@H](N)C(=O)O
measuredParameter: pIC50

input: Specify pIC50 for CCCC[C@H](NC(=O)[C@@H](CO)NC(=O)CN(CCCN)C(=O)O[C@]1(CC)C(=O)OCc2c1cc1n(c2=O)Cc2cc3ccccc3nc2-1)C(=O)N[C@H](Cc1ccc(O)cc1)C(=O)N[C@H](CO)C(=O)N[C@H]1CSSC[C@@H](C(=O)N[C@H](C(N)=O)[C@@H](C)O)NC(=O)[C@H]([C@@H](C)O)NC(=O)[C@H](CCCCN)NC(=O)[C@@H](Cc2c[nH]c3ccccc23)NC(=O)[C@H](Cc2ccccc2)NC1=O [Compound 4] ({Camptothecin(20S-OCO)}-[Gly(N(CH2)3NH2)][dS][Nle][dY][dS]CF[dW]KTCT-NH2; disulfide 6-11) and stop.
output: < 6.00

Sourced from patent US7771727B2
